Tested on: 186277-243-T-J2-PDC complex spheroid growth
experiment: Anticancer human tumor 186277-243-T-J2-PDC patient-derived colon adenocarcinoma cell line growth inhibition [AhR]
protocol conditions: curve of first compound; second compound 0.1 µM
Excerpt: Multicellular complex tumor spheroid response to aryl hydrocarbon receptor antagonists in combination with a variety of drugs and investigational agents in selected tumor cell lines […] Compounds. […] If the clinical Cmax for an agent had not been determined, the highest concentration tested was 10 microM (Table 1). […]
Readings of IC50 for the listed molecules
parameter measured: IC50

1. Nc1ncn(C2CC(O)C(CO)S2)c(=O)n1 (stereo unspecified) + Cc1cncc(-c2nc(NCCc3c[nH]c4ccccc34)c3ncn(C(C)C)c3n2)c1: > 0.3 µM
2. CCN(c1cc(-c2ccc(CN3CCOCC3)cc2)cc(C(=O)NCc2c(C)cc(C)[nH]c2=O)c1C)C1CCOCC1 + Cc1ccccc1N=Nc1ccc(NC(=O)c2ccnn2C)c(C)c1: > 3 µM
3. Cn1ncnc1C1c2n[nH]c(=O)c3cc(F)cc(c23)NC1c1ccc(F)cc1 (stereo unspecified) + CC(CO)NC(=O)c1cc(-c2ccc(Cl)cc2)nn(-c2cnn(C)c2)c1=O: > 0.1 µM
4. COc1ccc([C@@H](O)c2cc(-c3ncnc4cc(N5CCOCC5)ccc34)c(F)cc2Cl)nn1 + Cc1ccccc1N=Nc1ccc(NC(=O)c2ccnn2C)c(C)c1: > 10 µM
5. CCN(c1cc(-c2ccc(CN3CCOCC3)cc2)cc(C(=O)NCc2c(C)cc(C)[nH]c2=O)c1C)C1CCOCC1 + CC(CO)NC(=O)c1cc(-c2ccc(Cl)cc2)nn(-c2cnn(C)c2)c1=O: > 3 µM
6. O=C(c1cc(Cc2n[nH]c(=O)c3ccccc23)ccc1F)N1CCN(C(=O)C2CC2)CC1 + Cc1ccccc1N=Nc1ccc(NC(=O)c2ccnn2C)c(C)c1: > 10 µM

---

Test system: 186277-243-T-J2-PDC complex spheroid growth
experiment: Anticancer human tumor 186277-243-T-J2-PDC cell line growth inhibition [AhR];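 further: spheroids exposed to compounds for seven days before the viability read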
protocol conditions: curve of first compound; second compound 1 µM
parameter measured: IC50

1) COc1cccc2c1C(=O)c1c(O)c3c(c(O)c1C2=O)CC(O)(C(=O)CO)CC3OC1CC(N)C(O)C(C)O1 (configuration not stated) + CC(CO)NC(=O)c1cc(-c2ccc(Cl)cc2)nn(-c2cnn(C)c2)c1=O: < 0.0316 µM
2) Nc1ncn(C2CC(O)C(CO)S2)c(=O)n1 (configuration not stated) + Cc1ccccc1N=Nc1ccc(NC(=O)c2ccnn2C)c(C)c1: > 0.3 µM
3) COc1cc(Nc2ncc3c(n2)-c2ccc(Cl)cc2C(c2c(F)cccc2OC)=NC3)ccc1C(=O)O + Cc1cncc(-c2nc(NCCc3c[nH]c4ccccc34)c3ncn(C(C)C)c3n2)c1: > 10 µM
4) CCN(c1cc(-c2ccc(CN3CCOCC3)cc2)cc(C(=O)NCc2c(C)cc(C)[nH]c2=O)c1C)C1CCOCC1 + CC(CO)NC(=O)c1cc(-c2ccc(Cl)cc2)nn(-c2cnn(C)c2)c1=O: > 3 µM
5) CCN(c1cc(-c2ccc(CN3CCOCC3)cc2)cc(C(=O)NCc2c(C)cc(C)[nH]c2=O)c1C)C1CCOCC1 + Cc1ccccc1N=Nc1ccc(NC(=O)c2ccnn2C)c(C)c1: > 3 µM
6) Cn1ncnc1C1c2n[nH]c(=O)c3cc(F)cc(c23)NC1c1ccc(F)cc1 (configuration not stated) + CC(CO)NC(=O)c1cc(-c2ccc(Cl)cc2)nn(-c2cnn(C)c2)c1=O: > 0.1 µM
7) CC(C)c1c(-c2ccccc2)nc2c(C#N)c[nH]n2c1=O + Cc1cncc(-c2nc(NCCc3c[nH]c4ccccc34)c3ncn(C(C)C)c3n2)c1: > 10 µM
8) Nc1ncn(C2CC(O)C(CO)O2)c(=O)n1 (configuration not stated) + Cc1ccccc1N=Nc1ccc(NC(=O)c2ccnn2C)c(C)c1: > 1 µM
9) COc1ccc([C@@H](O)c2cc(-c3ncnc4cc(N5CCOCC5)ccc34)c(F)cc2Cl)nn1 + Cc1cncc(-c2nc(NCCc3c[nH]c4ccccc34)c3ncn(C(C)C)c3n2)c1: > 10 µM
10) Nc1ccn(C2OC(CO)C(O)C2(F)F)c(=O)n1 (configuration not stated) + Cc1cncc(-c2nc(NCCc3c[nH]c4ccccc34)c3ncn(C(C)C)c3n2)c1: < 0.0316 µM
11) CC(C)c1c(-c2ccccc2)nc2c(C#N)c[nH]n2c1=O + CC(CO)NC(=O)c1cc(-c2ccc(Cl)cc2)nn(-c2cnn(C)c2)c1=O: > 10 µM
12) CC(C)c1c(-c2ccccc2)nc2c(C#N)c[nH]n2c1=O + Cc1ccccc1N=Nc1ccc(NC(=O)c2ccnn2C)c(C)c1: > 10 µM
